assay: soluble on expression in E. coli; label from the status in PepcDB or PDB records
parameter: soluble on expression in E. coli

• MGSDKIHHHHHHMKELAIASRDLVSPDGLAGYLRFVNAQPLLRPEEERDLARRLRDHGDVDAAKDLVLSHLRFVVRVARGYRGYGLQEADLIQEGNIGLMKAVKRYDPDHGVRLVSFAVHWVKAEIHEFILRNWRIVKVATTKAQRKLFFNLRSSRSHTGWMSGEESAAMADDLGVTQAQVLEMEGRMSGYDYSLNLEPDEEREGGRAPDLADPTGSPIEQLVERDWDQQQHRALHTALSALPQRDRYIIENRWLSDDPKTLQVLGDELGVSAERVRQLEKSSMGKLRQQMLTTAAVA = not soluble
• MGSDKIHHHHHHMARTNPHRPFVPDPEQAALAPGVSGNDINGLGETAFRRPRMVYWAPDPDDIPHGSLQRYFYRQSAKEPDFASRRAARQAVLDAPLPLLADTVVIRDPADWTAALTQFVDSGLCDLTGVAEMNPDWVFEGHEIPQSRVIMIGVAHDYNVIATAPKPSAGLEVMTQYTRAAQAAKTIAGWLRQQGWQAEPLTGPMTGALAMIPPALACGFGELGKHGSIINPDLGASFRLSAVLSDAPFAPTPAQDHGIDGFCQNCHICQDACPPEALFAQKQTVRGARKWYVDFDKCLPFFNQTHGCAICIAECPWSRPGIGPNLAAKLARKRNRDATG = not soluble
• MKMPEHTDTPKEKILVYIRAEKQKTLHRRQVCINDIASVYCKYSRYEGQIKGIIVDKIRGKKSVISVMKIIEQITEIYDDAQVISIGEPEVLVEYDDNSKNKILEA = soluble
• MSLIAVLRINHRPFRDKRITTHVALTARAFGASSILVDEKDETLEQTINKVVENFGGNFFIKSGVDWKREFRNFKGIRVHLTMYGRPLEDVVKEIRESKKDVMILVGSEKVPFEAYEIADYNVSVTNQPISEVSALAIFLDRFYDGEELNWRFTGKINVYPSERGKKVKIIPDEQGCLDLLYKYGASDYLINHVKSVKELAVAIAKKTNADINLVTAGALLHDIGRTQVQGITHAVVGADILRREGIDDRVVSIVEKHIGAGIQSEEAVKLGLPPDNYVPETIEEMIVAHADNLFAGDKRLKLQQVVDNYRKKGLEDAAERIAKLHKFLSTVIGQDMDEIEGHHHHHH = soluble

Here's the next entry for you.
The value of soluble on expression in E. coli measured for the sequence MGSDKIHHHHHHLTNQMVYVYKDGKQVVSSQCVTGCIAKGHGTPTGVYSIFSMDKDRYLRGDGYKSWVNFFVPFNGGIGFHDASWRSTFGGNIYLYSGSHGCINMPYSEVKKLFANVSMGETVIVYGGATSVDGKEQSFTGQDAYSVTEGDASFNLGVTAQDNAKLTYVSDNEWVAKVDESGNVTPVGVGTATITVKSEATAGYRAGTKTITVTVNAKAQPQVQPQKPAQQQPQKPAQQQQPQKPAAKKDASVNVSESDVSLEINGTKKINISVSSDTGATVEVESGDASVATLDSNGNIVAKNEGQVTYKVYTKATGSYNASNVSYVTIKVSKPAEPDDSGADADRE turned out to be not soluble

----------
assay: soluble on expression in E. coli; label from the status in PepcDB or PDB records
parameter: soluble on expression in E. coli

Sample records with soluble on expression in E. coli:
* MGSDKIHHHHHHMSWNSFGNFMSARSSALAEFGNMVANLVSAKNEKDISKRNEYYKQAGYSALLAFGNLASNIAPGSTSSHIVNGTNASVIASRLSGNISSAIQEHKDGKVNINRFQNILADLYSLGGLGSTLIEKNGNMQSWGIPLAIAGDIIAATAIATGDTGTISTEEFYNFDNWKGFGYELFEDWSRWVYDWLPDGWNLWKELDRNRCWILTERDGRRQFKWLGKPDPTRGWFDNGHECLKPWGNIFDSYRRGKYHVYDPLALDLDGDGIETVATKGFSGALFDHRNQGIRTATGWVSADDGLLVRDLNGNGIIDNGAELFGDNTKLADGSFAKHGYAALAELDSNGDNIINAADAAF | not soluble
* MLNTILVALDGSEIAERVIQTLGYLVLSPNTNVILCHVFPAPESEIELPADRPQPDLPNFSYFNIDKQMQSYQERLSVKSELELVMGDPADEIIRLANIYKADLVVIGSRGLTGMNRIVQGSVSTQVMEAANCSVLVVKPARN | not soluble
* GPGSMQSNAPFDPEREALRNEAIKKTVERNVTQARLKKVNDDVKLQQRELDKVEDQVNALLSIGHYVGEVLKRVDEERFIVKSISGARHLVGYRKSIKPEKLKFGARVALEITTFTIVKVLPREVDPQVYSMQYMSSDKDVSFQDIGGLQPQMRQMREVIELPLTNPELFVRVGIAPPKGVLLYGPPGTGKTLLAKAIAANVDAAFLKIVASSIVDKYIGESARVIREMFAYAREHEPCIIFIDEVDAIGSKRIEGSSSDREIQRTLMELLNQMDGFDKLGKVKVIMATNRPDTLDAALMRPGRLDRKIEIPLPNEAGRLDVLRIHSAKITKKGDIDFESVVKLSEGFNGADLRNVCTEAGMFAIRAGRDYVENSDFNKAVRKVADMKRLEGTAHQYSDQ | not soluble
* MAHHHHHHMNLDEFNELVEQRNRIEREIQENVNFLEAPENKGVGLHGKLVDEEGFPRNDIDIYSIRVARNKVICLKNDYLNVSKRIEEYLHKVHTSHPVIRVQRSKAKKEEGDDPNESPPESCTQDYDESAPGYELLIEEAKRSTFAMIDELVENSPSHKAGLRINDYIIQFGDVQKKKKKNEENEKEDADIFNRIAAYMRNNPTRIKVKILREGKIFFYFVFPNRTPNGLYIGCHLTPISVGGGSV | not soluble
* LAMEVGSDSITLTSANTSADAKSVQLFEDFSCSHCSELSLATDADMKTQIEDGNLVVEIKPLNFLDRENIDGHSTHALAAALAVADSNDATLYWNFRAFLMEDQSEIYNQWSDDDFADGVEALGADSSVVDAIRNGDNIQRAYDLATANGEELTEETGSL | not soluble

The value of soluble on expression in E. coli measured for the sequence MQTLKSDIRNRILSAAKEQFMQRGYLKTSMREIADAVDVGVGNLYNYFENKDELFCVILRPVSDALERMLQEHHGAKGADIMLICSEEYLKSAVDEYISLINKHGELMKILLFHSQGSSLETFREDYTNRSTEIVKTWFAEMKEKHPEINVVVSDFMIHLQAVWMFTLFEEMLKHAIDSKEMEYIVHEYILFEIQGWRALLRV turned out to be not soluble

Recorded values, source the DeepSol protein solubility set.
